target: T1, human immunoglobulin E (hIgE) (human, UniProt P01854-1 1-428); assay: SPR (Biacore), pH 6.0
T1 construct: also called human IgE; Native IgE (Abcam)
T1 sequence (P01854 whole entry): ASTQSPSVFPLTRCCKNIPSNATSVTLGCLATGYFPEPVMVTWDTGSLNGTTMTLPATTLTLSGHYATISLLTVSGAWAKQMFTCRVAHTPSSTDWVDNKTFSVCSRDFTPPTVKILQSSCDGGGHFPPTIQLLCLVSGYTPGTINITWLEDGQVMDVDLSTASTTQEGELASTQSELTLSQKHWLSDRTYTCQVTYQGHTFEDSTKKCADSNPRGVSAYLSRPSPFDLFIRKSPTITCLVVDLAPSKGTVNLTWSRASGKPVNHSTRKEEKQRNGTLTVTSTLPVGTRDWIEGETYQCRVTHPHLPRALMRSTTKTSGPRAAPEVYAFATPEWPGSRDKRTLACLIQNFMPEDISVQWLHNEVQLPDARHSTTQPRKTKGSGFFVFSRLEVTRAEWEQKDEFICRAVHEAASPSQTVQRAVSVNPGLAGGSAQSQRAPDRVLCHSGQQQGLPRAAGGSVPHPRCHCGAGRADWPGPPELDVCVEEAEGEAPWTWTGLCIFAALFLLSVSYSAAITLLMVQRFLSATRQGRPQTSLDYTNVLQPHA
value.type: kon (M⁻¹ s⁻¹)
Just the number in M⁻¹ s⁻¹, nothing appended.

Illustrative cases are given below, each with its answer.
[Q] Give reported kon value for OMA VH15 - VL3D28HS31H (antibody, V domains shown) VH: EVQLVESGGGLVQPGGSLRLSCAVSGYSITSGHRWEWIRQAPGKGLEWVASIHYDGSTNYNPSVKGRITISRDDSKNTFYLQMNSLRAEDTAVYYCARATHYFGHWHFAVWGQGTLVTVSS VL: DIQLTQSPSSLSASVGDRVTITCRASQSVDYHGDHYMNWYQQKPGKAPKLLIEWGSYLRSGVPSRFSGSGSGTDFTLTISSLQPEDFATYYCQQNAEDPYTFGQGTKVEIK
[A] 310000

[Q] Give reported kon value for OmaVH15G55H - VL3D28H (antibody, V domains shown, also called OmaVH15G55H VL3D25H) VH: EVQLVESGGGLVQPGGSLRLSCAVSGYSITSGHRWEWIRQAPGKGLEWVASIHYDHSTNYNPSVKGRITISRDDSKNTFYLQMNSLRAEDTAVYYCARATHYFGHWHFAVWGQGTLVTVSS VL: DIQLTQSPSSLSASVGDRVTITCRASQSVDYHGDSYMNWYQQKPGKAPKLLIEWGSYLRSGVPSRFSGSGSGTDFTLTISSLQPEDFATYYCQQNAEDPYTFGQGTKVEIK
[A] 265000

Now for the binder whose kon we want.
[Q] Give reported kon value for OmaVH15G55HW100b - VL3 (antibody, V domains shown) VH: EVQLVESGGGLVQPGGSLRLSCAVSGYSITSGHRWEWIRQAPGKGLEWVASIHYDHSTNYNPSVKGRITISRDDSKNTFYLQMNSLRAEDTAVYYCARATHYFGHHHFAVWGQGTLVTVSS VL: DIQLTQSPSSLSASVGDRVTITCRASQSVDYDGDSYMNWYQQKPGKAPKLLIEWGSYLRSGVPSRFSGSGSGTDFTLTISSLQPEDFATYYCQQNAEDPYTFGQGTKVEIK
[A] 170000
